pIC50: −log10 of the molar value.
Compiled from multiple publications: pIC50 readings for Plasminogen (Homo sapiens, UniProt P00747).

| cpd.smiles | pIC50 |
| --- | --- |
| COc1cc(C(=N)N)ccc1OC(=O)[C@H]1CC[C@H](CN)CC1 | < 5.00 |

According to the records, this compound `C[C@H](NC(=O)[C@@H](CO)NS(C)(=O)=O)C(=O)NCc1ccc(C(=N)N)cc1` displays pIC50 of < 5.60

According to the records, this compound `N=C(N)c1ccc(CNC(=O)[C@@H]2Cc3cccc4c3N2C(=O)[C@@H](NS(=O)(=O)c2ccc3c(c2)CCO3)CC4)cc1` displays pIC50 of ≤ 5.60
